# Lookup of reported Euclidean distance keyed by entry
system: HEPG2; assay: Euclidean distance of Cell Painting phenotypic profile (signed KS, 77 features) to DMSO centroid (dimensionless distance); 5 or 10 uM (library dependent); higher = stronger phenotypic change vs DMSO (phenoactivity); settings: 48 h
Counter-ions that a name gives are not always drawn.

- COMPOUND: "C=C[C@](C)(O)CC[C@@H]1[C@@]2(C)CCCC(C)(C)[C@@H]2CC[C@@]1(C)O [Sclareol]"
  Euclidean distance: 0.546
- COMPOUND: "CCc1oc2ccccc2c1C(=O)c1cc(Br)c(O)c(Br)c1 [Benzbromarone]"
  Euclidean distance: 0.723
- COMPOUND: "O=C(O)c1cccnc1 [Nicotinic Acid]"
  Euclidean distance: 1.92
- COMPOUND: "O=c1oc2cc(O)ccc2s1 [Tioxolone]"
  Euclidean distance: 2.64
- COMPOUND: "COCCOC(=O)C1=C(C)NC(C)=C(C(=O)OC/C=C/c2ccccc2)C1c1cccc([N+](=O)[O-])c1 (stereo not given) [Cilnidipine]"
  Euclidean distance: 1.61
- COMPOUND: "OCc1cc(C(O)CNCCCCCCOCCCCc2ccccc2)ccc1O (stereo not given) [Salmeterol Xinafoate]"
  Euclidean distance: 2.19
- COMPOUND: "COc1cc(N)cn[n+]1-c1ccccc1 [Amezinium (methylsulfate)]"
  Euclidean distance: 0.523
- COMPOUND: "Cc1cnc(NC(=O)Nc2cc(Br)c(C)cc2OC[C@@H]2CNCCO2)cn1"
  Euclidean distance: 2.15
- COMPOUND: "CC(C)CCNC(=O)[C@H](CC(C)C)NC(=O)[C@H]1O[C@@H]1C(=O)O [Loxistatin Acid (E-64C)]"
  Euclidean distance: 1.44
- COMPOUND: "Nc1c(Br)cc(Br)cc1CN[C@H]1CC[C@H](O)CC1 [Ambroxol]"
  Euclidean distance: 0.645
- COMPOUND: "COC(=O)/C=C/C(=O)OCCN1C(=O)CCC1=O [Diroximel Fumarete]"
  Euclidean distance: 0.611
- COMPOUND: "CC1(C)OC(=O)NC1=O [5.5-Dimethyloxazolidine-2.4-dione]"
  Euclidean distance: 0.557
- COMPOUND: "CC(C)[C@H]1C(=O)N[C@@H](CCCN=C(N)N)C(=O)NCC(=O)N[C@@H](CC(=O)O)C(=O)N[C@H](Cc2ccccc2)C(=O)N1C"
  Euclidean distance: 4.74
- COMPOUND: "Cc1cn(-c2cc(NC(=O)c3ccc(C)c(Nc4nccc(-c5cccnc5)n4)c3)cc(C(F)(F)F)c2)cn1 [Nilotinib hydrochloride]"
  Euclidean distance: 3.37
- COMPOUND: "CN1CCN(CC/C=C2/c3ccccc3Sc3ccc(S(=O)(=O)N(C)C)cc32)CC1 [Thiothixene]"
  Euclidean distance: 3.3
- COMPOUND: "CC(C)n1nc(-c2cc3cc(O)ccc3[nH]2)c2c(N)ncnc21"
  Euclidean distance: 3.12
- COMPOUND: "O=C(NCC(O)CO)c1c(I)c(C(=O)NCC(O)CO)c(I)c(N(CCO)C(=O)CO)c1I (stereo not given) [Ioversol]"
  Euclidean distance: 0.876
- COMPOUND: "CC(C)c1ccc2oc3nc(N)c(C(=O)O)cc3c(=O)c2c1 [Amlexanox]"
  Euclidean distance: 0.909
- COMPOUND: "CC(C(=O)O)c1ccc(-c2ccccc2)c(F)c1 (stereo not given) [Flurbiprofen]"
  Euclidean distance: 0.393
- COMPOUND: "CC(C)NCC(O)COc1ccc(CC(N)=O)cc1 (stereo not given) [Atenolol]"
  Euclidean distance: 1.22
- COMPOUND: "Cn1ccnc1S [Methimazole]"
  Euclidean distance: 1.08
- COMPOUND: "Nc1ncnc2c1ncn2[C@@H]1O[C@H](CO)[C@@H](O)[C@@H]1O [Vidarabine monohydrate]"
  Euclidean distance: 1.66
- COMPOUND: "CCC/C=C1\\OC(=O)C2=C1CCC=C2 [Ligustilide]"
  Euclidean distance: 0.638
- COMPOUND: "CNC(=O)c1cnn(-c2nc(N)c3ncn([C@@H]4O[C@H](CO)[C@@H](O)[C@H]4O)c3n2)c1 [Regadenoson]"
  Euclidean distance: 1.32
- COMPOUND: "Cc1c(Cl)cccc1Nc1ccccc1C(=O)O [Tolfenamic Acid]"
  Euclidean distance: 0.5
- COMPOUND: "C/C(=C\\C(=O)OCCCCCCCCC(=O)O)C[C@@H]1OC[C@H](C[C@@H]2O[C@H]2[C@@H](C)[C@H](C)O)[C@@H](O)[C@H]1O [Mupirocin]"
  Euclidean distance: 0.693
- COMPOUND: "CCN(CCCc1ccccc1)CCCc1ccccc1 [Alverine Citrate]"
  Euclidean distance: 0.789
- COMPOUND: "C=CC(=O)Nc1ccc2ncnc(Nc3ccc(OCc4cccc(F)c4)c(Cl)c3)c2c1"
  Euclidean distance: 1.03
- COMPOUND: "CNC[C@@H](O)c1ccc(O)c(O)c1 [L-Adrenaline]"
  Euclidean distance: 0.928
- COMPOUND: "N[C@@H](CSCCCO)C(=O)O [Fudosteine]"
  Euclidean distance: 0.516
- COMPOUND: "NC(=O)[C@@H]1CSSCCC(=O)N[C@@H](CCCCN=C(N)N)C(=O)NCC(=O)N[C@@H](CC(=O)O)C(=O)N[C@@H](Cc2c[nH]c3ccccc23)C(=O)N2CCC[C@H]2C(=O)N1 [Eptifibatide Acetate]"
  Euclidean distance: 0.664
- COMPOUND: "CCCCCCCCN=c1ccn(CCCCCCCCCCn2ccc(=NCCCCCCCC)cc2)cc1 [Octenidine Dihydrochloride]"
  Euclidean distance: 4.62
- COMPOUND: "Cc1cc2c(s1)Nc1ccccc1N=C2N1CCN(C)CC1 [Olanzapine]"
  Euclidean distance: 0.621
- COMPOUND: "CC(=O)O[C@H]1C[C@@H]2CC[C@@H]3[C@H](CC[C@@]4(C)[C@H]3C[C@H]([N+]3(C)CCCCC3)[C@@H]4OC(C)=O)[C@@]2(C)C[C@@H]1N1CCCCC1 [Vecuronium Bromide]"
  Euclidean distance: 0.966
- COMPOUND: "C[C@]1(c2nc3c(C(N)=O)cccc3[nH]2)CCCN1 [Veliparib (ABT-888)]"
  Euclidean distance: 0.938

Source: the supplement of paper PMC10127200
